Source of measurements: PubChem BioAssay (NCI)

- Test system: SR leukemia
- Experimental Protocol: NCI tumour cell line growth inhibition, 48 h
Listed next: entries and their corresponding TGI.
Numeric only. Scale: µM

INSERT INTO results (compound, reading) VALUES
  ('COc1ccc(/C(=N/NC(N)=O)C2(O)C(=O)Nc3ccc([N+](=O)[O-])cc32)cc1 (centres undefined)', 47.1);

// switching to the query compound
# input Given the compound COc1cc(C(=O)OCCCCCCCCCCC[P+](c2ccccc2)(c2ccccc2)c2ccccc2)ccc1O , write its reported TGI.
# output 2.31

* * *

- System: T-47D breast
- Experimental Protocol: NCI tumour cell line growth inhibition, 48 h; in the data active = GI50 below about 0.43 µM; inactive = the rest
Outcomes you can answer with include only these: active, inactive

INSERT INTO measurements (compound, category) VALUES
  ('Cn1cc(-c2nonc2-c2c[nH]c3ccccc23)c2ccccc21', 'inactive'),
  ('NS(=O)(=O)c1ccc(NC(=O)c2ccc(NC3=C(Cl)C(=O)N(Cc4ccccc4)C3=O)cc2)cc1', 'inactive'),
  ('O=C(c1ccccc1)c1c(NCC(O)CN2CCCC2)n(Cc2ccccc2)c(=O)n(Cc2ccccc2)c1=O (stereo not drawn)', 'inactive'),
  ('C(=Nc1ccccc1)C1CCCC[N-]1.C(=Nc1ccccc1)C1CCCC[N-]1.[Cu+2].[O-][Cl+3]([O-])([O-])O (stereo not drawn)', 'inactive'),
  ('C=C1C(=O)O[C@H]2[C@H]1CC/C(CNC(=O)/C=C/c1ccc(Br)cc1)=C\CC[C@@]1(C)O[C@@H]21', 'inactive'),
  ('COC1=CC(c2ccc[nH]2)=N/C1=C\c1[nH]c(C)c(C(=O)OCc2ccccc2)c1C', 'active'),
  ('COc1ccc2c(c1)C(=O)c1c-2n(CCCN)c(=O)c2ccccc12', 'active');

Continue with the compound presented below.
# input Would you mind telling me which call this test gave CC(C)(C)OC(=O)NCCNC1=CC(=O)c2nc3ccccc3c3ccnc1c23 ?
# output inactive
